# Tested on: mAb CSLEX
# ASSAY_OVERVIEW: Glycan microarray analysis (Consortium for Functional Glycomics, printed array version 4.0), glycan binding of mAb CSLEX
# MEASUREMENT_CONDITIONS: mAb CSLEX at 50 μg/ml; average RFU of 6 replicates after removal of highest and lowest values
ATTRIBUTE_MEASURED: RFU (RFU)

Worked examples follow.
* CC(=O)NC1C(OCCCN)OC(CO)C(O)C1OC1OC(C(=O)O)C(O)C(O)C1O (stereo not shown) | 39
* CC(=O)N[C@H]1[C@H](OCCCN)O[C@H](CO)[C@@H](O[C@@H]2O[C@H](CO)[C@H](O)[C@H](O[C@@H]3O[C@H](CO)[C@H](O)[C@H](O)[C@H]3O)[C@H]2O)[C@@H]1O | 46
* CC(=O)N[C@H]1[C@H](O[C@H]2[C@@H](O)[C@@H](CO)O[C@H](OCCCN)[C@@H]2NC(C)=O)O[C@H](CO)[C@H](O)[C@@H]1O | 56
* CC(=O)NC1C(O)CC(OC2C(O)C(CO)OC(OC3C(NC(C)=O)C(OC4C(O)C(CO)OC(OC5C(NC(C)=O)C(OCCN)OC(CO)C5OC5OC(C)C(O)C(O)C5O)C4O)OC(CO)C3OC3OC(C)C(O)C(O)C3O)C2O)(C(=O)O)OC1C(O)C(O)CO (stereo not shown) | 42

a = CC(=O)N[C@H]1[C@H](OCCN)O[C@H](COS(=O)(=O)O)[C@@H](O[C@@H]2O[C@H](COS(=O)(=O)O)[C@H](O)[C@H](O)[C@H]2O)[C@@H]1O
b = CC(=O)NC1C(OCCN)OC(CO)C(OC2OC(CO)C(O)C(OC3(C(=O)O)CC(O)C(NC(=O)CO)C(C(O)C(O)CO)O3)C2O)C1OC1OC(C)C(O)C(O)C1O (stereo not shown)
INPUT: // returns a or b , whichever has the lower RFU Identify your pick by its label.
OUTPUT: a

###

RFU listing for selected compounds.
# Tested on: mAb CSLEX
# ASSAY_OVERVIEW: Glycan microarray analysis (Consortium for Functional Glycomics, printed array version 4.0), glycan binding of mAb CSLEX
# MEASUREMENT_CONDITIONS: mAb CSLEX at 50 μg/ml; average RFU of 6 replicates after removal of highest and lowest values
Reply with just the number (in RFU).

- CC(=O)NC1C(O)CC(OC2C(O)C(CO)OC(OC3C(CO)OC(OC4C(O)C(CO)OC(OC5C(CO)OC(OC6C(O)C(CO)OC(OC7C(CO)OC(OCCN)C(NC(C)=O)C7OC7OC(C)C(O)C(O)C7O)C6O)C(NC(C)=O)C5OC5OC(C)C(O)C(O)C5O)C4O)C(NC(C)=O)C3OC3OC(C)C(O)C(O)C3O)C2O)(C(=O)O)OC1C(O)C(O)CO (stereo not drawn) [compound 242]: 31104
- CC(=O)N[C@H]1[C@H](O[C@H]2[C@@H](O)[C@@H](CO)O[C@@H](O[C@@H]3[C@@H](NC(C)=O)[C@H](OCCN)O[C@H](CO)[C@H]3O[C@@H]3O[C@@H](C)[C@@H](O)[C@@H](O)[C@@H]3O)[C@@H]2O)O[C@H](CO)[C@@H](O[C@@H]2O[C@@H](C)[C@@H](O)[C@@H](O)[C@@H]2O)[C@@H]1O[C@@H]1O[C@H](CO)[C@H](O)[C@H](O)[C@H]1O [compound 266]: 29

Let's switch to this compound now.
INPUT: Give the value of RFU reported for the following: CC(=O)N[C@H]1[C@H](O[C@H]2[C@@H](O)[C@@H](CO)O[C@@H](OCCCN)[C@@H]2O)O[C@H](CO)[C@@H](O)[C@@H]1O [compound 171]
OUTPUT: 106

###

# Tested on: mAb CSLEX
# ASSAY_OVERVIEW: Glycan microarray analysis (Consortium for Functional Glycomics, printed array version 4.0), glycan binding of mAb CSLEX
# MEASUREMENT_CONDITIONS: mAb CSLEX at 50 μg/ml; average RFU of 6 replicates after removal of highest and lowest values
ATTRIBUTE_MEASURED: RFU (RFU)

Solved cases below.
- CC(=O)N[C@H]1[C@H](OCCN)O[C@H](CO)[C@@H](O[C@@H]2O[C@H](CO[C@]3(C(=O)O)C[C@H](O)[C@@H](NC(C)=O)[C@H]([C@H](O)[C@H](O)CO)O3)[C@H](O)[C@H](O)[C@H]2O)[C@@H]1O: 424
- CC(=O)N[C@H]1[C@H](O[C@@H]2[C@H](O)[C@@H](O)[C@H](O[C@H]3[C@H](O)[C@@H](O)[C@H](OCCCN)O[C@@H]3CO)O[C@@H]2CO)O[C@H](CO)[C@H](O)[C@@H]1O[C@@H]1O[C@H](CO)[C@H](O)[C@H](O)[C@H]1O: 58
- CC(=O)N[C@H]1[C@H](OCCCN)O[C@H](CO)[C@@H](O[C@@H]2O[C@H](CO)[C@H](O)[C@H](O)[C@H]2O)[C@@H]1O: 34
- CC(=O)NC1C(O)CC(OC2C(O)C(CO)OC(OC3C(CO)OC(OCCCN)C(NC(C)=O)C3OC3OC(C)C(O)C(O)C3O)C2O)(C(=O)O)OC1C(O)C(O)CO (stereo not drawn): 19491
- CC(=O)N[C@H]1[C@H](O[C@H]2[C@@H](O)[C@@H](CO)O[C@@H](O[C@H]3[C@H](O)[C@@H](O)[C@H](OCCN)O[C@@H]3CO)[C@@H]2O)O[C@H](CO)[C@@H](O[C@@H]2O[C@H](CO)[C@H](O)[C@H](O)[C@H]2O)[C@@H]1O: 29

P = NCCCO[C@@H]1O[C@H](CO)[C@H](O)[C@H](O[C@@H]2O[C@H](CO)[C@H](O)[C@H](O)[C@H]2O)[C@H]1O
Q = CC(=O)NC1C(O)CC(OC2C(O)C(CO)OC(OC3C(CO)OC(OCCN)C(NC(C)=O)C3OC3OC(C)C(O)C(O)C3O)C2O)(C(=O)O)OC1C(O)C(O)CO (stereo not drawn)
INPUT: Lab log: flag the item ( P or Q ) with the smaller RFU figure. Your answer should be the label of the entry you select.
OUTPUT: P

I = CC(=O)N[C@H]1[C@H](OCCN)O[C@H](CO)[C@@H](O[C@@H]2O[C@H](CO)[C@H](O)[C@H](O[C@H]3O[C@H](CO)[C@H](O)[C@H](O)[C@H]3NC(C)=O)[C@H]2O[C@@H]2O[C@@H](C)[C@@H](O)[C@@H](O)[C@@H]2O)[C@@H]1O
II = CC(=O)NC1C(OCCCN)OC(CO)C(OC2OC(CO)C(O)C(OC3OC(CO)C(OC4OC(CO)C(O)C(OC5(C(=O)O)CC(O)C(NC(C)=O)C(C(O)C(O)CO)O5)C4O)C(OC4OC(C)C(O)C(O)C4O)C3NC(C)=O)C2O)C1O (stereo not drawn)
INPUT: Lower value for measured RFU? Options: I , II Returns: label corresponding to the selected item.
OUTPUT: I
(I: 30 RFU, II: 27193 RFU)

###

# Tested on: mAb CHO-131
# ASSAY_OVERVIEW: Glycan microarray analysis (Consortium for Functional Glycomics, printed array version 4.0), glycan binding of mAb CHO-131
# MEASUREMENT_CONDITIONS: mAb CHO-131 at 50 μg/ml; average RFU of 6 replicates after removal of highest and lowest values
ATTRIBUTE_MEASURED: RFU (RFU)

* NCCCO[C@@H]1O[C@H](COS(=O)(=O)O)[C@@H](O[C@@H]2O[C@H](COS(=O)(=O)O)[C@H](O)[C@H](O)[C@H]2O)[C@H](O)[C@H]1O | 505

P = CC(=O)N[C@H]1[C@H](OCCCN)O[C@H](COS(=O)(=O)O)[C@@H](O[C@@H]2O[C@H](CO)[C@H](O)[C@H](OS(=O)(=O)O)[C@H]2O)[C@@H]1O
Q = CC(=O)N[C@H]1[C@H](OCCCN)O[C@H](COS(=O)(=O)O)[C@@H](O[C@@H]2O[C@H](CO[C@]3(C(=O)O)C[C@H](O)[C@@H](NC(C)=O)[C@H]([C@H](O)[C@H](O)CO)O3)[C@H](O)[C@H](O)[C@H]2O)[C@@H]1O
R = CC(=O)N[C@H]1[C@H](OCCN)O[C@H](COS(=O)(=O)O)[C@@H](O[C@@H]2O[C@H](COS(=O)(=O)O)[C@H](O)[C@H](O)[C@H]2O)[C@@H]1O
S = NCCCO[C@@H]1O[C@H](COS(=O)(=O)O)[C@@H](O[C@@H]2O[C@H](CO)[C@H](O)[C@H](OS(=O)(=O)O)[C@H]2O)[C@H](O)[C@H]1O
INPUT: Order field: RFU | Direction: descending (largest first) Answer with the labels in sequence, matching the requested order.
OUTPUT: R, S, P, Q
(R: 1306 RFU, S: 903 RFU, P: 584 RFU, Q: 243 RFU)
